Test system GTPase HRas (Homo sapiens) (UniProt P01112), Ki listed for each of the compounds.
Readout name: Ki (µM)

COc1ccc(C2CC(c3ccc(Cl)cc3)=NN2c2ccccc2)cc1OC (stereo unspecified) ... 0.01
COc1ccc(C2=NN(c3ccccc3)C(c3ccccc3C(F)(F)F)C2)cc1 (stereo unspecified) ... 2.77
CN(C)c1ccc(C2CC(c3ccccc3)=NN2c2ccccc2)cc1 (stereo unspecified) ... 0.01
COc1ccc(C2=NN(c3ccccc3F)C(c3ccc(F)cc3)C2)cc1 (stereo unspecified) ... 2.11
NS(=O)(=O)c1ccc(N2N=C(c3ccc(Cl)cc3)CC2c2ccccc2)cc1 (stereo unspecified) ... 0.01
COc1ccc(C2CC(c3ccccc3)=NN2c2ccc(Cl)c(C(=O)O)c2)cc1 (stereo unspecified) ... 0.16
